Tested on: K562 CRISPRi cells
Test: Constant region variant library pooled growth screen, K562
Assay type: cell-based, human
Conditions: sgRNA constant region variants; activity relative to the original, un-modified constant region cr995
measure-name: Mean relative activity
Please give the numeric answer without any surrounding text.

Solved entries (count: 3):
[
  {
    "molecule": "cr437 (nucleic acid, listed as DNA, chemistry not fully specified) guide: GTTTAAGAGCTAAGCTGGAAACAGCATAGCAAGTTTAAATAAGGCTAGTCCGTTATCAACGTGAAAACGTGGCACACAGTGTGTGCT",
    "measure-name": "Mean relative activity",
    "numeric-value": 0.6854
  },
  {
    "molecule": "cr568 (nucleic acid, listed as DNA, chemistry not fully specified) guide: GTTTAAGAGCTAAGCTGGAAACAGCATAGCAAGTTTAAATAAGGCTAGTCCGTTATCATCGTGAAAACGAGGCAACGAGTCGTTGCT",
    "measure-name": "Mean relative activity",
    "numeric-value": 1.054
  },
  {
    "molecule": "cr227 (nucleic acid, listed as DNA, chemistry not fully specified) guide: GTTTAAGAGCTAAGCTGGAAACAGCATAGCAAGTTTAAATAAGGCTAGTCCGCTAACCACTTGAAAAAGTGGCACCGAGTCGGTGCT",
    "measure-name": "Mean relative activity",
    "numeric-value": 0.6062
  }
]

The record that follows has no Mean relative activity shown yet.
Input cr564 (nucleic acid, listed as DNA, chemistry not fully specified) guide: GTTTAAGAGCTAAGCTGGAAACAGCATAGCAAGGTTAAATAAGGCTAGTCCGTTATCAACTTGAAAAAGTGGCAGCGAGTCGCTGCT . Output Mean relative activity: −0.001952
